- Test system: LOX IMVI melanoma
- experiment: NCI tumour cell line growth inhibition, 48 h
measurement.kind: TGI

[[record]]
compound = "CC1(C)CCCC2(C)[C@@H]1CC[C@@]13CC(=O)[C@@](C)(CC[C@@H]21)C3 (stereo partly specified)"
measurement_kind = "TGI"
observed = "> 100 µM"

[[record]]
compound = "COC(=O)C12C3C4C1C1C2C3C41C(=O)NC(C)(C)CC(=O)O (stereo unspecified)"
measurement_kind = "TGI"
observed = "> 100 µM"

[[record]]
compound = "CC(=O)c1c(-c2ccc(Cl)cc2)c(C#N)c(=S)n(C2OC(CO)C(O)C(O)C2O)c1-c1ccccc1 (stereo unspecified)"
measurement_kind = "TGI"
observed = "> 100 µM"

[[record]]
compound = "OC[C@H]1C[C@@H]2Cc3ccccc3N2N1"
measurement_kind = "TGI"
observed = "> 100 µM"

[[record]]
compound = "NC(N)=N/N=C(/CCN1CCCC1)CC(c1ccccc1)c1c(O)c2ccccc2oc1=O (stereo unspecified)"
measurement_kind = "TGI"
observed = "> 100 µM"

[[record]]
compound = "O=C(O)C1Cc2c([nH]c3ccccc23)C(CCCCO)N1 (stereo unspecified)"
measurement_kind = "TGI"
observed = "> 100 µM"

[[record]]
compound = "Cc1[nH]n(-c2ncc(C#N)c(=O)[nH]2)c(=O)c1CCO"
measurement_kind = "TGI"
observed = "> 100 µM"

[[record]]
compound = "CC(=O)COC(=O)CC(C)=O"
measurement_kind = "TGI"
observed = "> 100 µM"

[[record]]
compound = "N/N=C(\\CCN1CCCC1)CC(c1ccccc1)c1c(O)c2ccccc2oc1=O (stereo unspecified)"
measurement_kind = "TGI"
observed = "> 100 µM"

[[record]]
compound = "CCCCC(CCCC)=NNC(=S)SC"
measurement_kind = "TGI"
observed = "> 100 µM"

[[record]]
compound = "NC12CC3C4CC5(N)CC3C(C1)C(C5)C4C2"
measurement_kind = "TGI"
observed = "> 100 µM"

[[record]]
compound = "COCC1OC(OC2OCC3OC4(OCC(O)(C(C)OC)C5OCOC54)OC3C2OC)C(OC)C(O)C1OC1OC(C)C(OC)C(OC2OC(C)C3OC4(CC(O)C(OC5CC(OC6CC(C)([N+](=O)[O-])C(OC)C(C)O6)C(OC(=O)c6c(C)c(Cl)c(O)c(Cl)c6OC)C(C)O5)C(C)O4)OC3(C)C2O)C1O (stereo unspecified)"
measurement_kind = "TGI"
observed = "> 100 µM"

[[record]]
compound = "Cc1nc2ccccc2c(=O)n1NC(=O)c1ccc(N)cc1"
measurement_kind = "TGI"
observed = "> 100 µM"

[[record]]
compound = "COc1ccc2c3c([nH]c2c1)C(=O)c1nc(C)ccc1C3=O"
measurement_kind = "TGI"
observed = "> 100 µM"

[[record]]
compound = "Cc1ccc(Cl)cc1Nc1nc(C(F)(F)F)ccc1C(N)=O"
measurement_kind = "TGI"
observed = "11.4 µM"

[[record]]
compound = "CC(=O)/C(N=Nc1ccc(-n2c(C)nc3ccccc3c2=O)cc1)=C(/C)O"
measurement_kind = "TGI"
observed = "> 100 µM"

[[record]]
compound = "CCCC(=O)OCC(COC(=O)CCC)OC(=O)CCC"
measurement_kind = "TGI"
observed = "> 100 µM"

[[record]]
compound = "CCCCCCCCCCCCCCCC(=O)Nc1ccn(C2OC(CO)C(O)C2O)c(=O)n1 (stereo unspecified)"
measurement_kind = "TGI"
observed = "38 µM"

[[record]]
compound = "OCCOCCO/N=C1\\C(c2c(O)[nH]c3ccccc23)=Nc2ccccc21"
measurement_kind = "TGI"
observed = "11.6 µM"

[[record]]
compound = "CCOC(=O)C(=Cc1ccc(-c2ccccc2)cc1)C(=O)OCC"
measurement_kind = "TGI"
observed = "3.21 µM"

[[record]]
compound = "C/C=C/C1(C)/C(=N\\O)C(C)(CCC)C(=O)N1O (stereo unspecified)"
measurement_kind = "TGI"
observed = "> 100 µM"

[[record]]
compound = "CC(=O)Oc1ccc2c3c1[C@H]1O[C@H]1c1cccc(c1-3)[C@@H]1O[C@H]21"
measurement_kind = "TGI"
observed = "4.13 µM"

[[record]]
compound = "COc1ccccc1NC(=O)c1ccc(NC2=C(Cl)C(=O)N(Cc3ccccc3)C2=O)cc1"
measurement_kind = "TGI"
observed = "35 µM"

[[record]]
compound = "CC(=O)O[C@@H]1C(C2CCCCC2)C=[N+]([O-])O[C@@H]1OC1CCCC1(c1ccccc1)c1ccccc1 (stereo partly specified)"
measurement_kind = "TGI"
observed = "3.48 µM"

[[record]]
compound = "C[n+]1c2ccccc2c2/c(=C\\C#N)c3ccccc3n21"
measurement_kind = "TGI"
observed = "16.6 µM"

[[record]]
compound = "NC(N)=NCCCC(NC(=O)OCCCCCn1ccc(N)nc1=O)C(=O)O (stereo unspecified)"
measurement_kind = "TGI"
observed = "> 100 µM"

[[record]]
compound = "O=c1cccccc1NCCCCCCCCNc1cccccc1=O"
measurement_kind = "TGI"
observed = "> 100 µM"

[[record]]
compound = "CCOC(=O)/C=C(\\C)Sc1cc(O)c2ccccc2c1O"
measurement_kind = "TGI"
observed = "92.2 µM"

[[record]]
compound = "C=CCC(NCc1ccccc1)[C@H](OCc1ccccc1)[C@@H]1COC(C)(C)O1 (stereo partly specified)"
measurement_kind = "TGI"
observed = "72 µM"

[[record]]
compound = "CCn1cc(C2NC(=O)c3ccccc3N2)c2cccc(C)c21 (stereo unspecified)"
measurement_kind = "TGI"
observed = "13.7 µM"

[[record]]
compound = "CCc1nc(N)c2nc(-c3ccc(C#N)cc3)oc2n1"
measurement_kind = "TGI"
observed = "> 100 µM"

[[record]]
compound = "COc1ccc2c(c1)C(=Nc1ccc(F)c(F)c1F)c1c-2c(Nc2ccc(F)c(F)c2F)nc2ccccc12"
measurement_kind = "TGI"
observed = "> 100 µM"

[[record]]
compound = "CCOc1ccc(/C=C\\c2cc(OC)c(OC)c(OC)c2)cc1"
measurement_kind = "TGI"
observed = "> 100 µM"

[[record]]
compound = "COc1ccc2c(c1)c(-c1nonc1-c1cn(C)c3ccccc13)cn2C"
measurement_kind = "TGI"
observed = "> 100 µM"

[[record]]
compound = "CCOC(=O)N1CCC2C(=C(C)C(C)C3=C2C(=O)c2ccccc2C3=O)C1 (stereo unspecified)"
measurement_kind = "TGI"
observed = "> 10 µM"

[[record]]
compound = "COc1cccc(CNCCN2C(=O)c3ccc4c5c(ccc(c35)C2=O)C(=O)N(CCNCc2cccc(OC)c2)C4=O)c1"
measurement_kind = "TGI"
observed = "3.53 µM"

[[record]]
compound = "COc1ccc(C(=O)N2N=C(c3ccc(Br)cc3)CC2c2cn(-c3ccccc3)nc2-c2ccccc2)cc1 (stereo unspecified)"
measurement_kind = "TGI"
observed = "> 50 µM"

[[record]]
compound = "C#CCC(O)c1ccccc1C(O)CC#C (stereo unspecified)"
measurement_kind = "TGI"
observed = "> 100 µM"

[[record]]
compound = "Nc1ncnc2c1ncn2C1OC(CSC(F)F)C(O)C1O (stereo unspecified)"
measurement_kind = "TGI"
observed = "> 100 µM"

[[record]]
compound = "N#Cc1cc2c(cc1Cl)SC(=Nc1ccccc1)N(S(=O)(=O)c1ccc(Cl)cc1)S2(=O)=O"
measurement_kind = "TGI"
observed = "28.8 µM"

[[record]]
compound = "C=CCN(c1cc(OCc2ccccc2)c2c(c(C)cn2S(=O)(=O)c2ccc([N+](=O)[O-])cc2)c1[N+](=O)[O-])S(C)(=O)=O"
measurement_kind = "TGI"
observed = "> 100 µM"

